Test system: MS2 coat protein
Protocol text: apparent Kd, MS2 coat protein; higher = weaker binding; RNA-MaP array; FMN 200 µM where present
Run parameters: ligand present: flavin mononucleotide; designed as: OFF switch for flavin mononucleotide
Reported apparent Kd values follow for various sequences
Answer as a quantity: numeral, then unit.

Some sequences with known apparent Kd results, for comparison:
-- ask Answer with apparent Kd of "GCCAAGCUAGGAUAUACCCAGGGUUUGUUCUCUAACAACACACAUGAGGAUCACCCAUGUAGAAGGAGCCGGGA" measured for MS2 coat protein.
-- reply 81 nM

-- ask Answer with apparent Kd of "UACGUACAGAAGAACUCCGGGUCCAGAAGGGACAUGAGGAUCACCCAUGUACCGUUGAUUGCUUGUCAGGAUAUGGACCCGGCC" measured for MS2 coat protein.
-- reply 28 nM

-- ask Answer with apparent Kd of "CCGCAGUUAGGAUAUACAUGAGGAUCACCCAUGUGUCCAUCUGUAAUAAGACAGGAUAGUAGAAGGAACUGGCG" measured for MS2 coat protein.
-- reply 25.9 nM

Shifting focus to the sequence that follows.
-- ask Answer with apparent Kd of "AUCAGCUUGACAGGAUAUGCAUGUCAACGAAAGUUGACAAUCUUAAUAACAUGAGGAUCACCCAUGUAGAAGGGUCGAGCUGAU" measured for MS2 coat protein.
-- reply 19.9 nM

###

Test system: MS2 coat protein
Protocol text: apparent Kd, MS2 coat protein; higher = weaker binding; RNA-MaP array; FMN 200 µM where present
Run parameters: ligand present: flavin mononucleotide; designed as: OFF switch for flavin mononucleotide
Metric: apparent Kd (nM)
Write the answer as a number in nM, unit excluded.

-- ask For the sequence "UGUUUUCAUGUAGGAUAUGCUUGUCGUAGAUACGCAGAAGGACAUGAGGAUCACCCAUGUUAAAGCGACAGAGUAUAGAUUCUU" , give its reported apparent Kd.
-- reply 22.3

-- ask For the sequence "AUGCAACAUGAGGAUCACCCAUGUGAGGAUAUCGUAUAAUACUGUUGAAAGAGUUAGACGAGAAGGCACACCGU" , give its reported apparent Kd.
-- reply 54

-- ask For the sequence "ACCGUGCAAGGAUAUCGUUACCUCGACAUGAGGAUCACCCAUGUGGCCAUAUAGCGAUUGCGAGAAGGUGCGGGUA" , give its reported apparent Kd.
-- reply 112

-- ask For the sequence "CACGAUCAUGUAGGAUAUAUACUGGAAUACAGUAUAGAAGGACAUGAGGAUCACCCAUGUUAUGUGCCUCCAAGUAAGAUCGUG" , give its reported apparent Kd.
-- reply 23.2

-- ask For the sequence "CCAUGGUGGGCAGGAUAUCGUCCAGCUUGCGGACGAGAAGGGCUCAAACAUGAGGAUCACCCAUGUGAAGAGCGGGUUGUCCAA" , give its reported apparent Kd.
-- reply 146

-- ask For the sequence "AUAGCAACAUGAGGAUCACCCAUGUAGGAUAUCGCUAUUGUAAUCAUGAAACAUGAUUACAAUAGCGAGAAGGACAUAUGCUAU" , give its reported apparent Kd.
-- reply 9.75

Shifting focus to the sequence that follows.
-- ask For the sequence "UGUGUGUGACAGGAUAUGCUGGUUGUGAGACGGGUAGAAGGGUCUACAUGAGGAUCACCCAUGUGGCCGGUUGG" , give its reported apparent Kd.
-- reply 20.6

###

System: MS2 coat protein
Protocol text: apparent Kd, MS2 coat protein; higher = weaker binding; RNA-MaP array; FMN 200 µM where present
Run parameters: designed as: OFF switch for flavin mononucleotide; no ligand
Metric: apparent Kd (nM)
Write the answer as a number in nM, unit excluded.

-- ask For the sequence "AUUUAGAGAGGAUAUAUAAUGUGAAACAUGAGGAUCACCCAUGUAAUAUUAUGGAUGUAAAUAGAAGGCUCAUUUA" , give its reported apparent Kd.
-- reply 32.7

-- ask For the sequence "GACUGACGAGGAUAUACAUGAGGAUCACCCAUGUAAGAUCAGCGACGAUAGUCGCAAUGUAGAAGGCGUCAGUC" , give its reported apparent Kd.
-- reply 29.8

-- ask For the sequence "CUUAUUUGAGGAUAUACGUCACCGUCUUCAUGAGUUCAAAUACAUGAGGAUCACCCAUGUAGAAGGCAAUUACU" , give its reported apparent Kd.
-- reply 25.8

-- ask For the sequence "AAUCCACAUGAGGAUCACCCAUGUCAGGAUAUCGCGCGCGCGUUUUCGGUCUCGCGCGCGAGAAGGGACGGCUG" , give its reported apparent Kd.
-- reply 24

###

Reported apparent Kd values follow for various sequences
Tested on: MS2 coat protein
Protocol text: apparent Kd, MS2 coat protein; higher = weaker binding; RNA-MaP array; FMN 200 µM where present
Run parameters: ligand present: flavin mononucleotide; designed as: OFF switch for flavin mononucleotide
Write the answer as a number in nM, unit excluded.

Some sequences with known apparent Kd results, for comparison:
-- ask For the sequence "CGCUCUAUAUAUUUGGCAAGAAUCAGAAGGCGUUACAUGAGGAUCACCCAUGUUUUGAAUAGUAACGAGGAUAUGAUAUGAGCG" , give its reported apparent Kd.
-- reply 25

-- ask For the sequence "GUGAGGUCAGGAUAUGCAUGGCGGGACUUGCGUCGUGGCGUGGAGAAGGGACAUGAGGAUCACCCAUGUGGAGG" , give its reported apparent Kd.
-- reply 95

-- ask For the sequence "CGGCACGCAGGAUAUGCCUUUGAGUACAUGAGGAUCACCCAUGUCUUCACCCUCAUUAGGGCAGAAGGGCGAUAUC" , give its reported apparent Kd.
-- reply 32.2

-- ask For the sequence "AAGUAGGCAGGAUAUACAUGAGGAUCACCCAUGUGCCUAUACAAGGUAAUCUUGGGAGGUAGAAGGGCCUACAA" , give its reported apparent Kd.
-- reply 166

-- ask For the sequence "CCACUGUCAGGAUAUCGUGCAUAAGCGUUUACAUUUAUGUGCGAGAAGGGACAUGAGGAUCACCCAUGUAAACG" , give its reported apparent Kd.
-- reply 653

-- ask For the sequence "GGAUAGGACAGAGGAUAUACGUGCUAGAGAUACUAGCAAAAUUUCCGCACAUGAGGAUCACCCAUGUAGAAGGCUGUCCUAUCG" , give its reported apparent Kd.
-- reply 9.26

-- ask For the sequence "GAGAAGUGAGGAUAUGCUGCUCGUCACUUGCGUGAUGAGUAGCAGAAGGCACAUGAGGAUCACCCAUGUAAAGG" , give its reported apparent Kd.
-- reply 244

-- ask For the sequence "GUACUGUAGUGAGGAUAUACGAGUACGAUAGUACGGCGAUCCAUUUAUACAUGAGGAUCACCCAUGUAGAAGGCACUUCAGUAC" , give its reported apparent Kd.
-- reply 61.6

-- ask For the sequence "AUCGUGAGUAAGGAUAUCACGCGACCCUUUCGGUGAGAAGGUGCCACAUGAGGAUCACCCAUGUGGGUCGUCGC" , give its reported apparent Kd.
-- reply 15.9

-- ask For the sequence "ACGCGAUGGGAGAAGGUACUUUAAUUAGGUUACACAUGAGGAUCACCCAUGUAAGGAUAUCCCAUCGUUAAAUAUUAUACAGCA" , give its reported apparent Kd.
-- reply 5.41

Further cases:
-- ask For the sequence "AUAAAACAUGAGGAUCACCCAUGUAAGGAUAUGCGAAAAUAAAAUAAAAUAAAAUAAAGCAGAAGGUACAAAAA" , give its reported apparent Kd.
-- reply 59.6

-- ask For the sequence "CUGCGCUAGGAGAAGGGCUAGAGUGUGAUAUAUUUGCCCGCGAGCACAUGAGGAUCACCCAUGUAGCAGGAUAUCCAAGCCGGU" , give its reported apparent Kd.
-- reply 16.5

-- ask For the sequence "ACAUGAGGAUCACCCAUGUAUUACAUGGUUAAGUUUAUUAACAGAAGGCGAAAUUACCACUUUUUCGAGGAUAUGUUUUCUAUA" , give its reported apparent Kd.
-- reply 58.4

-- ask For the sequence "GUAGUGUAGUGAGGAUAUACGAGAUCGAUAGAUCGGCGAUCCAUAUAUACAUGAGGAUCACCCAUGUAGAAGGCACUUCACUAC" , give its reported apparent Kd.
-- reply 91.5

-- ask For the sequence "UUUAUUUCGGCAGGAUAUACAUGUAUAUAUAUUUCUUCAUAUCUUAUUACAUGAGGAUCACCCAUGUAGAAGGGCCUUCUUCUC" , give its reported apparent Kd.
-- reply 80.5

-- ask For the sequence "CGAUAACAUAGUUAUCCGUAACGGACAUGAGGAUCACCCAUGUAGGAUAUGUUACUCAACGAGUAACAGAAGGACAUGAGUCCU" , give its reported apparent Kd.
-- reply 54

-- ask For the sequence "AAGUCAGCAGGAUAUGCGAUGUUGUGCUAGAUAGCGGGACCACAUGAGGAUCACCCAUGUAGAAGGGCUGGCUA" , give its reported apparent Kd.
-- reply 22.5

-- ask For the sequence "GGAUCGAUGUAGAAGGCUGUCUUAAAAUAGGACAGAGGAUAUACAUGAGGAUCACCCAUGUACUCCUUUAAAAUGAUCCAAAUA" , give its reported apparent Kd.
-- reply 9.65

-- ask For the sequence "GUGUACAGAGGAUAUAUAUGAGCAUGGAAACAUGCAUCUUCACAUGAGGAUCACCCAUGUAGAAGGCUGUACAC" , give its reported apparent Kd.
-- reply 49.2

-- ask For the sequence "AUACAUGAGGAUCACCCAUGUUACUGGGUCUAUAUAGAACGUAGAAGGAUGAUAUUAUAAAUAUCAUAGGAUAUACUAUAUUGU" , give its reported apparent Kd.
-- reply 32

-- ask For the sequence "UGUCAUAUAUAGAAGGGUAGUAGGGUUUUACAUGAGGAUCACCCAUGUAUUAUAGGAUAUGUGUAUAGUUUUUAUUCAAGUAUA" , give its reported apparent Kd.
-- reply 25.4

-- ask For the sequence "GUAUGACAAAGUCAUACCGCUUUGACAUGAGGAUCACCCAUGUAGGAUAUAUUAAUCAAAGAUUAAUAGAAGGACAUGUUUCUU" , give its reported apparent Kd.
-- reply 114

-- ask For the sequence "AAGAUGCGGAUAGGAUAUGGAAAGAAGGAAAGACCAGAAGGAUUGGUCAUAUAACAUGAGGAUCACCCAUGUAUAUGUUGUGAA" , give its reported apparent Kd.
-- reply 17.7

-- ask For the sequence "CGGGAGUCAGGAUAUACGGUCAUGUCGCCAGAUGUCAUGGUACAUGAGGAUCACCCAUGUAGAAGGGAGGAGAU" , give its reported apparent Kd.
-- reply 136

-- ask For the sequence "UUUUUACAUGAGGAUCACCCAUGUGAGGAUAUGGAUUCGCUGGCCGUAGCCAGUGGAUCCAGAAGGCGCAUGAU" , give its reported apparent Kd.
-- reply 280
